Attribute: IC50
- target: AHAS P197S-D376E-W574L (Arabidopsis thaliana, UniProt P17597, D376E/E575Q/P197S/W574L)
- Sequence (P17597 56-670 P197S/D376E/W574L/E575Q): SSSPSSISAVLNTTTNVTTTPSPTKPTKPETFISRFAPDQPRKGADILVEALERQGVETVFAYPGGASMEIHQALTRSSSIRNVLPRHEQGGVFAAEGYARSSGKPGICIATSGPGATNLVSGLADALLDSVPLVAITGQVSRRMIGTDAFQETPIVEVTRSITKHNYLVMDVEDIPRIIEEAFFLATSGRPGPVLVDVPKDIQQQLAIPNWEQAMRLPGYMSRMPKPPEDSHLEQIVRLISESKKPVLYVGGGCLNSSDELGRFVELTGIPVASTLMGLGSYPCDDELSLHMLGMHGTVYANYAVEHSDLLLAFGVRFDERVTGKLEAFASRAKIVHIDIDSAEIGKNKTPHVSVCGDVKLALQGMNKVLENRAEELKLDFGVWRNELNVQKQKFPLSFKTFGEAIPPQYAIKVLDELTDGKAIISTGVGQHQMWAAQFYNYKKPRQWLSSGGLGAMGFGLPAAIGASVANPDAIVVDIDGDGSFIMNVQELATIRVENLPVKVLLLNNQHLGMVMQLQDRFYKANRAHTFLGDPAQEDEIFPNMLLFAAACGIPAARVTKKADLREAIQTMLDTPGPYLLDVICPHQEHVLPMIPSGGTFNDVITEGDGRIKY
- protocol_summary: biochemical

- molecule: "COc1cc(OC)nc(NC(=O)NS(=O)(=O)c2ncccc2C(F)(F)F)n1"
  IC50: "> 100 µM"
- molecule: "CCS(=O)(=O)c1nc2ccccn2c1S(=O)(=O)NC(=O)Nc1nc(OC)cc(OC)n1"
  IC50: "> 100 µM"
- molecule: "COC(=O)c1sccc1S(=O)(=O)NC(=O)Nc1nc(C)nc(OC)n1"
  IC50: "> 100 µM"
- molecule: "COCc1cnc(C2=NC(C)(C(C)C)C(=O)N2)c(C(=O)O)c1 (stereo not shown)"
  IC50: "> 100 µM"
- molecule: "COc1cc(OC)nc(NC(=O)NS(=O)(=O)N(C)S(C)(=O)=O)n1"
  IC50: "> 100 µM"
- molecule: "COc1cc(OC)nc(NC(=O)NS(=O)(=O)c2ncccc2C(=O)N(C)C)n1"
  IC50: "> 100 µM"
- molecule: "COc1cc(OC)nc(NC(=O)NS(=O)(=O)c2cc(NC=O)ccc2C(=O)N(C)C)n1"
  IC50: "> 100 µM"
- molecule: "CCS(=O)(=O)c1cccnc1S(=O)(=O)NC(=O)Nc1nc(OC)cc(OC)n1"
  IC50: "> 100 µM"
- molecule: "COc1cc(OC)n2nc(S(=O)(=O)Nc3c(Cl)ccc(C)c3Cl)nc2n1"
  IC50: "> 100 µM"
- molecule: "COc1cc(OC)nc(Oc2cccc(Oc3nc(OC)cc(OC)n3)c2C(=O)O)n1 [Bispyribac-sodium, bispyribac-sodium]"
  IC50: "> 100 µM"
